The reported measurements were obtained from patent US20180057553A1.

- Tested system: Recombinant human intelectin-1 (Homo sapiens, UniProt Q8WWA0, V109D)
- Sequence (Q8WWA0 19-298 V109D): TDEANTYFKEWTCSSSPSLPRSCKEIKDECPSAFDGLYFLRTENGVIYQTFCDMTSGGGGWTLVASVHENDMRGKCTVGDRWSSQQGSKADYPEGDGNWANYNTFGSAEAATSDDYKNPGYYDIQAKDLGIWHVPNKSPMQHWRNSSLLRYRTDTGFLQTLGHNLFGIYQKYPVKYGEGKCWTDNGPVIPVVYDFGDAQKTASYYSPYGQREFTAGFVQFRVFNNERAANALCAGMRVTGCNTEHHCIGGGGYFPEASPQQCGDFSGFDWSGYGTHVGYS
- Assay name: Inhibition of the binding of intelectin to a 3-amino-1-propanediol sensor chip by various compounds (Biacore, Example 3)
- Protocol: The binding of purified intelectin to a sensor chip to which 3-amino-1-propanediol is fixed via an amino group was measured using Biacore (GE Healthcare Biosciences) under the presence of various kinds of compounds that were serially diluted. […] Intelectin was used at the final concentration of 0.5 microgram/mL. […] The binding of intelectin measured using the sample that was not added with an above-mentioned compound was considered 100%, and the binding of intelectin in each sample was measured.
List of IC50 values.
Write the answer as a number in mM, unit excluded.

For orientation, consider the following solved cases.
# IC50 lookup, item `O=C[C@H](O)[C@@H](O)[C@@H](O)[C@H](O)CO`
11

Please give the result for `O=C(CO)[C@@H](O)[C@H](O)[C@H](O)CO` too.
9

Now consider `OCCO` .
2.2

// repeat for `O=C(CO)[C@@H](O)[C@H](O)[C@@H](O)CO` and report
14

Now this one: `O=C[C@H](O)[C@@H](O)[C@H](O)[C@H](O)CO`
18

Others:
Value lookup for IC50; key = `O=C[C@@H](O)[C@@H](O)[C@H](O)[C@H](O)CO`
16
